# METHOD NOTES: clinical
# SETUP CONDITIONS: human, in vivo, 225 mg, AUC0–12, median (minimum, maximum)
MEASUREMENT KIND: AUC(0-t)
Kindly format the answer as number then unit.

Request: What value of AUC(0-t) has been recorded for this entry: `C=CCn1c(=O)c2cnc(Nc3ccc(N4CCN(C)CC4)cc3)nc2n1-c1cccc(C(C)(C)O)n1`
Result: 12 µM·h

###

# METHOD NOTES: clinical
# SETUP CONDITIONS: human, in vivo, Mean Vz/F, L (SD)
MEASUREMENT KIND: Vd/F

[[record]]
compound = "COc1ccc2[nH]c([S+]([O-])Cc3ncc(C)c(OC)c3C)nc2c1 (centres unmarked) [Omeprazole, omeprazole, reference compound]"
measurement_kind = "Vd/F"
val = "28.3 L"


From here, focus on the item given below.
Request: What value of Vd/F has been recorded for this entry: Cn1c(=O)c2c(ncn2C)n(C)c1=O [Caffeine, caffeine, reference compound]
Result: 39.3 L
